System: 171881-019-R-J1-PDC tumor spheroids, viability
Experiment: Anticancer human tumor 171881-019-R-J1-PDC patient-derived invasive breast carcinoma cell line growth inhibition [GQUAD]; active means viability on the fitted dose curve at most 10% of control; inactive means the rest
Settings: second compound 10 µM; first compound 10 µM; spheroids with HUVEC and MSC
Hi! Could you answer with just one of these? active, inactive

These solved cases illustrate the format of a correct answer.
CC(C)n1c(=O)n(C)c2cnc3cc(F)c(-c4ccc(OCCCN5CCCCC5)nc4)cc3c21 + CN(C)c1ccc(Nc2c3ccc(NC(=O)CCN4CCCC4)cc3nc3cc(NC(=O)CCN4CCCC4)ccc23)cc1 :: active
CC(=O)O[C@H]1C(=O)[C@@]2(C)[C@H]([C@H](OC(=O)c3ccccc3)[C@]3(O)C[C@H](OC(=O)[C@H](O)[C@@H](NC(=O)c4ccccc4)c4ccccc4)C(C)=C1C3(C)C)[C@]1(OC(C)=O)CO[C@@H]1C[C@@H]2O + CN(C)c1ccc(Nc2c3ccc(NC(=O)CCN4CCCC4)cc3nc3cc(NC(=O)CCN4CCCC4)ccc23)cc1 :: active
CC(C)n1c(=O)n(C)c2cnc3cc(F)c(-c4ccc(OCCCN5CCCCC5)nc4)cc3c21 + Cc1[nH]c2ccc(F)cc2c1-c1nc2c3cccnc3c3ncccc3c2[nH]1 :: inactive

Exercise: Please indicate how the test categorized C=CC(=O)N1CCN(c2nc(=O)n(-c3c(C)ccnc3C(C)C)c3nc(-c4c(O)cccc4F)c(F)cc23)C(C)C1 (centres undefined) + Cc1cnc(CNC(=O)c2c(=O)c3ccc(N4CCCN(C)CC4)nc3n3c2sc2ccccc23)cn1 .
Key: inactive

Exercise: Please indicate how the test categorized O=C(NO)c1cnc(N2CCN(S(=O)(=O)c3ccc4ccccc4c3)CC2)nc1 + Cc1[nH]c2ccc(F)cc2c1-c1nc2c3cccnc3c3ncccc3c2[nH]1 .
Key: active

Exercise: Please indicate how the test categorized CC(=O)O[C@H]1C(=O)[C@@]2(C)[C@H]([C@H](OC(=O)c3ccccc3)[C@]3(O)C[C@H](OC(=O)[C@H](O)[C@@H](NC(=O)c4ccccc4)c4ccccc4)C(C)=C1C3(C)C)[C@]1(OC(C)=O)CO[C@@H]1C[C@@H]2O + Cc1cnc(CNC(=O)c2c(=O)c3ccc(N4CCCN(C)CC4)nc3n3c2sc2ccccc23)cn1 .
Key: inactive

Exercise: Please indicate how the test categorized CC1COCCN1c1cc(C2(S(C)(=N)=O)CC2)nc(-c2ccnc3[nH]ccc23)n1 (centres undefined) + CN(C)c1ccc(Nc2c3ccc(NC(=O)CCN4CCCC4)cc3nc3cc(NC(=O)CCN4CCCC4)ccc23)cc1 .
Key: active

Exercise: Please indicate how the test categorized Cc1cccc(N(C)C(=O)C2C(O)CCN2c2nc(C)cc(C(F)(F)F)c2C#N)c1 (centres undefined) + Cc1cnc(CNC(=O)c2c(=O)c3ccc(N4CCCN(C)CC4)nc3n3c2sc2ccccc23)cn1 .
Key: inactive

Exercise: Please indicate how the test categorized COc1ccc([C@@H](O)c2cc(-c3ncnc4cc(N5CCOCC5)ccc34)c(F)cc2Cl)nn1 + Cc1[nH]c2ccc(F)cc2c1-c1nc2c3cccnc3c3ncccc3c2[nH]1 .
Key: active

* * *

viability, T/C by entry:
Test system: 171881-019-R-J1-PDC tumor spheroids, viability
Test: Anticancer human tumor 171881-019-R-J1-PDC cell line growth inhibition [GQUAD];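 further: spheroids exposed to compounds for 7 days; 100% = DMSO vehicle control viability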
Details: second compound 0.0316 µM; first compound 0.316 µM; hits give low values; spheroids with HUVEC and MSC
Please respond with the number in % and leave the unit unwritten.

Answered cases to consult:
CC(C)(O)C1CCC(Nc2ccc3ncc(-c4cccc(C(F)(F)F)c4)n3n2)CC1 (stereo unspecified) + Cc1cnc(CNC(=O)c2c(=O)c3ccc(N4CCCN(C)CC4)nc3n3c2sc2ccccc23)cn1 :: 89.5
CC1COCCN1c1cc(C2(S(C)(=N)=O)CC2)nc(-c2ccnc3[nH]ccc23)n1 (stereo unspecified) + Cc1cnc(CNC(=O)c2c(=O)c3ccc(N4CCCN(C)CC4)nc3n3c2sc2ccccc23)cn1 :: 90.7
O=C(NO)c1cnc(N2CCN(S(=O)(=O)c3ccc4ccccc4c3)CC2)nc1 + Cc1[nH]c2ccc(F)cc2c1-c1nc2c3cccnc3c3ncccc3c2[nH]1 :: 55

Would you kindly look at the next entry?
Exercise: In one line, give reported viability, T/C of the entry COc1ccc([C@@H](O)c2cc(-c3ncnc4cc(N5CCOCC5)ccc34)c(F)cc2Cl)nn1 + CN(C)c1ccc(Nc2c3ccc(NC(=O)CCN4CCCC4)cc3nc3cc(NC(=O)CCN4CCCC4)ccc23)cc1 .
Key: 62.5

* * *

Test system: 171881-019-R-J1-PDC tumor spheroids, viability
Test: Anticancer human tumor 171881-019-R-J1-PDC cell line growth inhibition [GQUAD];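 further: spheroids exposed to compounds for 7 days; 100% = DMSO vehicle control viability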
Settings: second compound 1 µM; first compound 0.0999 µM; hits give low values; spheroids with HUVEC and MSC
viability, T/C by entry:
Please respond with the number in % and leave the unit unwritten.

Answered cases to consult:
Cn1ncnc1[C@H]1c2n[nH]c(=O)c3cc(F)cc(c23)N[C@@H]1c1ccc(F)cc1 + Cc1[nH]c2ccc(F)cc2c1-c1nc2c3cccnc3c3ncccc3c2[nH]1 :: 89.1
Cc1[nH]c2ccccc2c1CCNCc1ccc(/C=C/C(=O)NO)cc1 + Cc1cnc(CNC(=O)c2c(=O)c3ccc(N4CCCN(C)CC4)nc3n3c2sc2ccccc23)cn1 :: 23.4
CC[C@@]1(O)C(=O)OCc2c1cc1n(c2=O)Cc2cc3c(CN(C)C)c(O)ccc3nc2-1 + CN(C)c1ccc(Nc2c3ccc(NC(=O)CCN4CCCC4)cc3nc3cc(NC(=O)CCN4CCCC4)ccc23)cc1 :: 10.3
Cn1ncnc1[C@H]1c2n[nH]c(=O)c3cc(F)cc(c23)N[C@@H]1c1ccc(F)cc1 + Cc1cnc(CNC(=O)c2c(=O)c3ccc(N4CCCN(C)CC4)nc3n3c2sc2ccccc23)cn1 :: 63.5

Would you kindly look at the next entry?
Exercise: In one line, give reported viability, T/C of the entry CCc1c2c(nc3ccc(O)cc13)-c1cc3c(c(=O)n1C2)COC(=O)[C@]3(O)CC + Cc1[nH]c2ccc(F)cc2c1-c1nc2c3cccnc3c3ncccc3c2[nH]1 .
Key: 23.6

* * *

Tested on: 171881-019-R-J1-PDC tumor spheroids, viability
Assay: Anticancer human tumor 171881-019-R-J1-PDC cell line growth inhibition [GQUAD]; active means viability on the fitted dose curve at most 10% of control; inactive means the rest;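 further: spheroids exposed to compounds for 7 days; 100% = DMSO vehicle control viability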
Conditions: second compound 0.316 µM; first compound 10 µM; spheroids with HUVEC and MSC
Hi! Could you answer with just one of these? active, inactive

O=C(NO)c1cnc(N2CCN(S(=O)(=O)c3ccc4ccccc4c3)CC2)nc1 + Cc1cnc(CNC(=O)c2c(=O)c3ccc(N4CCCN(C)CC4)nc3n3c2sc2ccccc23)cn1 :: active
O=c1[nH]cc(F)c(=O)[nH]1 + Cc1[nH]c2ccc(F)cc2c1-c1nc2c3cccnc3c3ncccc3c2[nH]1 :: inactive
C=CC(=O)N1CCN(c2nc(=O)n(-c3c(C)ccnc3C(C)C)c3nc(-c4c(O)cccc4F)c(F)cc23)C(C)C1 (configuration not stated) + Cc1[nH]c2ccc(F)cc2c1-c1nc2c3cccnc3c3ncccc3c2[nH]1 :: inactive
COc1ncnc(C2CC2)c1-c1ncc2cnn(Cc3ccc(-c4nc(C(F)(F)F)cn4C(C)C)cc3)c2n1 + Cc1[nH]c2ccc(F)cc2c1-c1nc2c3cccnc3c3ncccc3c2[nH]1 :: inactive
CCCS(=O)(=O)Nc1ccc(F)c(C(=O)c2c[nH]c3ncc(-c4ccc(Cl)cc4)cc23)c1F + Cc1[nH]c2ccc(F)cc2c1-c1nc2c3cccnc3c3ncccc3c2[nH]1 :: inactive
O=C(NO)c1cnc(N2CCN(S(=O)(=O)c3ccc4ccccc4c3)CC2)nc1 + Cc1[nH]c2ccc(F)cc2c1-c1nc2c3cccnc3c3ncccc3c2[nH]1 :: active
Cc1cccc(N(C)C(=O)C2C(O)CCN2c2nc(C)cc(C(F)(F)F)c2C#N)c1 (configuration not stated) + CN(C)c1ccc(Nc2c3ccc(NC(=O)CCN4CCCC4)cc3nc3cc(NC(=O)CCN4CCCC4)ccc23)cc1 :: inactive
Nc1ccn(C2OC(CO)C(O)C2(F)F)c(=O)n1 (configuration not stated) + Cc1[nH]c2ccc(F)cc2c1-c1nc2c3cccnc3c3ncccc3c2[nH]1 :: inactive

Exercise: Please indicate how the test categorized COc1cc(C2c3cc4c(cc3C(OC3OC5COC(C)OC5C(O)C3O)C3COC(=O)C23)OCO4)cc(OC)c1O (configuration not stated) + Cc1[nH]c2ccc(F)cc2c1-c1nc2c3cccnc3c3ncccc3c2[nH]1 .
Key: inactive

Exercise: Please indicate how the test categorized CC(C)n1c(=O)n(C)c2cnc3cc(F)c(-c4ccc(OCCCN5CCCCC5)nc4)cc3c21 + Cc1cnc(CNC(=O)c2c(=O)c3ccc(N4CCCN(C)CC4)nc3n3c2sc2ccccc23)cn1 .
Key: inactive

Exercise: Please indicate how the test categorized CCCS(=O)(=O)Nc1ccc(F)c(C(=O)c2c[nH]c3ncc(-c4ccc(Cl)cc4)cc23)c1F + CN(C)c1ccc(Nc2c3ccc(NC(=O)CCN4CCCC4)cc3nc3cc(NC(=O)CCN4CCCC4)ccc23)cc1 .
Key: inactive
